Tested on: Eleusine indica (ELEIN)
Assay: Post-emergence efficacy, glasshouse spray test
Type: in vivo
Conditions: Eleusine indica, post-emergence, 312 h; application rate 1000 g/Ha; evaluated after 13 days; read-out: Control of weed species ELEIN after post-emergence application (100=total damage to plant; 0=no damage to plant)
PARAMETER MEASURED: pest or weed control at 1000 g/ha (%)

[[record]]
molecule = "O=C([O-])C[C@H](O)C[n+]1ccc2ccccc2n1"
parameter_measured = "pest or weed control at 1000 g/ha"
number = 0

[[record]]
molecule = "CC#Cc1c[n+](CCOS(=O)(=O)[O-])nc2ccccc12"
parameter_measured = "pest or weed control at 1000 g/ha"
number = 30

[[record]]
molecule = "Cc1ccc2n[n+](CC(=O)[O-])cc(C)c2c1"
parameter_measured = "pest or weed control at 1000 g/ha"
number = 70

[[record]]
molecule = "O=S(=O)([O-])CC(O)C[n+]1ccc2ccccc2n1 (stereo not shown)"
parameter_measured = "pest or weed control at 1000 g/ha"
number = 80

[[record]]
molecule = "COc1c[n+](CCS(=O)(=O)[O-])nc2ccccc12"
parameter_measured = "pest or weed control at 1000 g/ha"
number = 10

[[record]]
molecule = "CN(C)S(=O)(=O)[N-]C(=O)C[n+]1ccc2ccccc2n1"
parameter_measured = "pest or weed control at 1000 g/ha"
number = 0

[[record]]
molecule = "O=S(=O)([O-])CCC[n+]1cc(C(Cl)Cl)c2ccccc2n1"
parameter_measured = "pest or weed control at 1000 g/ha"
number = 10

[[record]]
molecule = "COC(=O)C[n+]1ccc2cc(OC)ccc2n1"
parameter_measured = "pest or weed control at 1000 g/ha"
number = 40

[[record]]
molecule = "O=S(=O)([O-])OC[n+]1ccc2ccccc2n1"
parameter_measured = "pest or weed control at 1000 g/ha"
number = 0

[[record]]
molecule = "Cc1cccc2cc[n+](CCS(=O)(=O)[O-])nc12"
parameter_measured = "pest or weed control at 1000 g/ha"
number = 90

[[record]]
molecule = "O=S(=O)([O-])CC[n+]1ccc2c(Cl)cccc2n1"
parameter_measured = "pest or weed control at 1000 g/ha"
number = 60

[[record]]
molecule = "O=S(=O)(O)CC[n+]1ccc2cccc(I)c2n1 [Compound A42, 2,2,2-trifluoroacetate]"
parameter_measured = "pest or weed control at 1000 g/ha"
number = 80

[[record]]
molecule = "Cc1cc2ccccc2n[n+]1CCOS(=O)(=O)[O-]"
parameter_measured = "pest or weed control at 1000 g/ha"
number = 80

[[record]]
molecule = "O=S(=O)([O-])CC[n+]1ccc2cc(F)ccc2n1"
parameter_measured = "pest or weed control at 1000 g/ha"
number = 60

[[record]]
molecule = "O=S(=O)([O-])CC[n+]1ccc2ccccc2n1 [Compound A24, 2-cinnolin-2-ium-2-ylethanesulfonate]"
parameter_measured = "pest or weed control at 1000 g/ha"
number = 80

[[record]]
molecule = "O=S(=O)([O-])CC[n+]1ccc2cc(Cl)ccc2n1"
parameter_measured = "pest or weed control at 1000 g/ha"
number = 50

[[record]]
molecule = "Cc1cc(C)c2n[n+](CCO)cc(C)c2c1"
parameter_measured = "pest or weed control at 1000 g/ha"
number = 60

[[record]]
molecule = "O=S(=O)([N-]CC[n+]1ccc2ccccc2n1)C(F)(F)F"
parameter_measured = "pest or weed control at 1000 g/ha"
number = 0

[[record]]
molecule = "OCC[n+]1ccc2ccccc2n1"
parameter_measured = "pest or weed control at 1000 g/ha"
number = 40

[[record]]
molecule = "Cc1c[n+](CCO)nc2ccccc12"
parameter_measured = "pest or weed control at 1000 g/ha"
number = 20

[[record]]
molecule = "COC(=O)C[n+]1cc(C)c2ccccc2n1"
parameter_measured = "pest or weed control at 1000 g/ha"
number = 70

[[record]]
molecule = "Cc1cc2ccccc2n[n+]1CCCS(=O)(=O)[O-]"
parameter_measured = "pest or weed control at 1000 g/ha"
number = 60

[[record]]
molecule = "C[C@@H](C[n+]1ccc2ccccc2n1)NS(=O)(=O)[O-]"
parameter_measured = "pest or weed control at 1000 g/ha"
number = 100

[[record]]
molecule = "Cc1c[n+](CCS(=O)(=O)[O-])nc2c(C)cccc12"
parameter_measured = "pest or weed control at 1000 g/ha"
number = 20

[[record]]
molecule = "CS(=O)(=O)NC(=O)C[n+]1ccc2ccccc2n1"
parameter_measured = "pest or weed control at 1000 g/ha"
number = 80

[[record]]
molecule = "O=C(O)c1ccc(C[n+]2ccc3ccccc3n2)cc1"
parameter_measured = "pest or weed control at 1000 g/ha"
number = 0

[[record]]
molecule = "N[C@H](CC[n+]1ccc2ccccc2n1)C(=O)O [Compound A12, 2,2,2-trifluoroacetate]"
parameter_measured = "pest or weed control at 1000 g/ha"
number = 90

[[record]]
molecule = "COC(=O)C[n+]1ccc2cccc(C)c2n1"
parameter_measured = "pest or weed control at 1000 g/ha"
number = 10

[[record]]
molecule = "Cc1ccc2cc[n+](CCS(=O)(=O)[O-])nc2c1"
parameter_measured = "pest or weed control at 1000 g/ha"
number = 80

[[record]]
molecule = "COC(=O)CC[n+]1ccc2ccccc2n1"
parameter_measured = "pest or weed control at 1000 g/ha"
number = 90

[[record]]
molecule = "Cc1c[n+](CC(=O)O)nc2ccccc12"
parameter_measured = "pest or weed control at 1000 g/ha"
number = 20

[[record]]
molecule = "COP(=O)([O-])CCC[n+]1ccc2ccccc2n1"
parameter_measured = "pest or weed control at 1000 g/ha"
number = 70

[[record]]
molecule = "O=P(O)(O)CCC[n+]1ccc2ccccc2n1"
parameter_measured = "pest or weed control at 1000 g/ha"
number = 90

[[record]]
molecule = "O=S(=O)([O-])CCC[n+]1ccc2ccccc2n1"
parameter_measured = "pest or weed control at 1000 g/ha"
number = 80

